Each record here notes measured MBC.
- Tested on: Bacillus subtilis
- protocol summary: Microbicidal activity against Bacillus subtilis ATCC 6633 assessed as inhibition of colony growth incubated for 24 hrs followed by replating and further incubated for 24 hrs
- Format: functional
- experimental conditions: ATCC 6633, 24 h
Numeric answer only, unit µM assumed.

Below, each entry is followed by its recorded MBC result.
smiles text | units text | MBC
CC(=O)N[C@@H](CCCCN)c1nc(C)sc1C(=O)N[C@@H](CC(C)C)c1nc(CCCCN)sc1C(=O)N[C@@H](C)c1nc(CC(C)C)sc1C(=O)N[C@@H](CCCCN)c1nc(C)sc1C(=O)N[C@@H](CC(C)C)c1nc(CCCCN)sc1C(=O)N[C@@H](C)c1nc(CC(C)C)sc1C(=O)N[C@@H](CCCCN)c1nc(C)sc1C(=O)N[C@@H](CC(C)C)c1nc(CCCCN)sc1C(=O)N[C@@H](C)c1nc(CC(C)C)sc1C(=O)N[C@@H](CCCCN)c1nc(C)sc1C(=O)N[C@@H](CC(C)C)c1nc(CCCCN)sc1C(=O)N[C@@H](C)c1nc(CC(C)C)sc1C(N)=O | µM | 6.2
CC(=O)N[C@@H](CCCCN)c1nc(C)sc1C(=O)N[C@@H](C)c1nc(CCCCN)sc1C(=O)N[C@@H](C)c1nc(C)sc1C(=O)N[C@@H](CCCCN)c1nc(C)sc1C(=O)N[C@@H](C)c1nc(CCCCN)sc1C(=O)N[C@@H](C)c1nc(C)sc1C(=O)N[C@@H](CCCCN)c1nc(C)sc1C(=O)N[C@@H](C)c1nc(CCCCN)sc1C(=O)N[C@@H](C)c1nc(C)sc1C(=O)N[C@@H](CCCCN)c1nc(C)sc1C(=O)N[C@@H](C)c1nc(CCCCN)sc1C(=O)N[C@@H](C)c1nc(C)sc1C(N)=O | µM | 0.5

**Q:** Need MBC of CC(=O)N[C@@H](CCCCN)c1nc(C)sc1C(=O)N[C@@H](C)c1nc(CCCCN)sc1C(=O)N[C@@H](C)c1nc(C)sc1C(=O)N[C@@H](CCCCN)c1nc(C)sc1C(=O)N[C@@H](C)c1nc(CCCCN)sc1C(=O)N[C@@H](C)c1nc(C)sc1C(N)=O , thanks.
**A:** 30
